Measured values drawn from ChEMBL document CHEMBL5653605 for this set.

# TARGET ENTITY: Phosphatidylinositol 4,5-bisphosphate 3-kinase catalytic subunit alpha isoform (Homo sapiens, UniProt P42336)
# Sequence (P42336 whole entry, canonical isoform): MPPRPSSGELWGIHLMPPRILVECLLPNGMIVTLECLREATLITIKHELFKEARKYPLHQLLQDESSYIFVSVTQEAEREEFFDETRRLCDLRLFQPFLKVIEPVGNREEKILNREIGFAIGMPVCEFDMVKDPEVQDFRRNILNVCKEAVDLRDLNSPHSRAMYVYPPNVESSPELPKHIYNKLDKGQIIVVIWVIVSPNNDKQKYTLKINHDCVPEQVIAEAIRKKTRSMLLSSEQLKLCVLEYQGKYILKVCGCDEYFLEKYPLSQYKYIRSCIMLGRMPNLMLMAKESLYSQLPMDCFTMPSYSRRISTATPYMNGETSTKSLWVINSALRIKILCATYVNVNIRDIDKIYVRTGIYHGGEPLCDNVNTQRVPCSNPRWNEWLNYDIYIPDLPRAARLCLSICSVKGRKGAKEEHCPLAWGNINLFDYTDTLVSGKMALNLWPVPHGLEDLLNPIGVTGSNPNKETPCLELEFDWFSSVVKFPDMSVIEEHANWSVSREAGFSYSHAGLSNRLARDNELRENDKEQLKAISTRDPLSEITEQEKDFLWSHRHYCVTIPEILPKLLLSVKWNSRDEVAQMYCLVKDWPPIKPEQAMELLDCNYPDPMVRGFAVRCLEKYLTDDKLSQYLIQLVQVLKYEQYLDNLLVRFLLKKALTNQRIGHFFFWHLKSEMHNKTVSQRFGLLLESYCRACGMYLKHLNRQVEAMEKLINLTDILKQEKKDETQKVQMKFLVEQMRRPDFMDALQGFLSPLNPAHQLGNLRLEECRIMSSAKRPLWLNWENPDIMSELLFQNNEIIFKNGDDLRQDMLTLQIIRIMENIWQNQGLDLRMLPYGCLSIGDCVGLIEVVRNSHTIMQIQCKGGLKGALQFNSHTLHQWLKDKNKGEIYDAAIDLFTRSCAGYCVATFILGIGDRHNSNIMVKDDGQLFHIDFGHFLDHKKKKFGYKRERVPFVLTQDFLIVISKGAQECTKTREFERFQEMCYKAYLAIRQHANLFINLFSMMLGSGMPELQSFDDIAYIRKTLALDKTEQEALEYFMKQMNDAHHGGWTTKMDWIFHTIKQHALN
# ASSAY INFO: Inhibition of PI3Kalpha (unknown origin) in presence of ATP by HTRF assay
ASSAY ENDPOINT: pIC50
When answering, recall that pIC50 equals minus log10 of the concentration in mol/L, and write that number alone.

Q. Form field: reported pIC50 of "Nc1nccn2c1c(-c1cc3cccc(Cl)c3[nH]1)nc2[C@H]1CC[C@H](C(=O)O)CC1"
A. 6.72

###

# TARGET ENTITY: Phosphatidylinositol 4,5-bisphosphate 3-kinase catalytic subunit beta isoform (Homo sapiens)
# Sequence (P42338 whole entry, canonical isoform): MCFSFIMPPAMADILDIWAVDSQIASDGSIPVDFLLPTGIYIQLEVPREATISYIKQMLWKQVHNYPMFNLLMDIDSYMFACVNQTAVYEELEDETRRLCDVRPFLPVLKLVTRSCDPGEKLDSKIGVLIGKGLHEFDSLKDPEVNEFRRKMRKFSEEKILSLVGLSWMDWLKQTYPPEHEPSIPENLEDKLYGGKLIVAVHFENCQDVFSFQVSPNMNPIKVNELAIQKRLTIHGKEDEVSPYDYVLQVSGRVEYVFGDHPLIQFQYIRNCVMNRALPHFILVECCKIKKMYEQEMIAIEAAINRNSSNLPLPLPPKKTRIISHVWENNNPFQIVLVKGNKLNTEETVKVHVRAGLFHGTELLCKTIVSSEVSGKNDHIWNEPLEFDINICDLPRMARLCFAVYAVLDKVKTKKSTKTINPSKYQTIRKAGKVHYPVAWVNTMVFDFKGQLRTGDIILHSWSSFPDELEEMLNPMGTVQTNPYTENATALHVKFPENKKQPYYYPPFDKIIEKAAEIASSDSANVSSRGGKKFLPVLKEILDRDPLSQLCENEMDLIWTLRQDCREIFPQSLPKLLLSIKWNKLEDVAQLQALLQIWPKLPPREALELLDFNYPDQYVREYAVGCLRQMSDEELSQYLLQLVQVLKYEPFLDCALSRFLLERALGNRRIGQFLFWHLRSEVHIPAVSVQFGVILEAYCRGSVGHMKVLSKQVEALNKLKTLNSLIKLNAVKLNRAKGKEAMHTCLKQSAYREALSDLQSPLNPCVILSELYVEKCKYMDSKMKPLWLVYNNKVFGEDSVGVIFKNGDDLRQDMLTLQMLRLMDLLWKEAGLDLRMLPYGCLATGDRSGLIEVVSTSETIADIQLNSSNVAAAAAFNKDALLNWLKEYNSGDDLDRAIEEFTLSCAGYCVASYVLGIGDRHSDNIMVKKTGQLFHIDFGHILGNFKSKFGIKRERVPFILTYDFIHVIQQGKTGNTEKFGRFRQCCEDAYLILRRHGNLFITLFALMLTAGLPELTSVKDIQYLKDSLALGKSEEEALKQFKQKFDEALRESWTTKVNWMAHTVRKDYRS
# ASSAY INFO: Inhibition of PI3Kbeta (unknown origin) in presence of ATP by HTRF assay
ASSAY ENDPOINT: IC50 (µM)
Just the number please, in µM, no unit attached.

Q. I'd like to know its IC50. The compound in question is "Nc1nccn2c1c(-c1cc3cccc(Cl)c3[nH]1)nc2[C@H]1CC[C@H](C(=O)O)CC1"
A. 9.3
